Tested on: OVCAR-8 ovarian
Experiment: NCI tumour cell line growth inhibition, 48 h
Task for the reader: assign each of the following compounds its reported TGI.

Consider the reported TGI for these compounds:
In [3]: df
Out[3]:
                                   compound  reported_endpoint  reported_result
0  O=C([O-])CC(=O)[O-].O=C([O-])CC(=O)[O-].[K+].[Pd+2]                TGI         > 100 µM
1  CC1=CC2C(O1)C1C(=O)C=CC(=O)C1=CC2[N+](=O)[O-] (stereo not given)                TGI          60.2 µM
2  Cc1ccc(N=Nc2ccc(N(CCC#N)CCC#N)cc2C)c(Br)c1                TGI         > 100 µM

Hello, I would appreciate it if you could give TGI for each entry below.
1. O=C1/C(=C/c2ccc(O)cc2)CC/C1=C\c1ccc(O)cc1
2. CN1C(=O)C(C)(C)C2(SC(C)(C)C2(C)C)N(C)C1=S (stereo not given)
3. Cn1c2ccccc2c2c(Nc3ccccc3)c3ccccc3nc21
4. CC(=O)Nc1ccc(-c2nnc(SCC(=O)Nc3ccc([N+](=O)[O-])cc3)o2)cc1
5. COC(=O)CC1CCN(C#N)CC1CC[N+](=O)[O-] (stereo not given)
6. N#CC(c1ccc(Cl)cc1)c1cccc(C(C#N)c2ccc(Cl)cc2)n1 (stereo not given)

Data returned:
1. > 100 µM
2. > 100 µM
3. > 100 µM
4. 29.9 µM
5. > 100 µM
6. > 100 µM

Data request: Hello, I am looking for reported TGI with OVCAR-8 ovarian for O=S(=O)(NC1=NCCN1C(=S)SN1CCn2c1nsc2=S)c1ccc(OC(F)(F)F)cc1 . Could you help?
Data returned: 39.3 µM
